- Test system: RPMI-7951 metastatic melanoma cancer cell line
- Assay comment: MTT cell viability assay on RPMI-7951
- Format: cell-based, human
- Condition info: read-out: IC50 ± SD RPMI-7951; RPMI-7951, MTT, 24 h
Hi there, I'd appreciate the recorded pIC50 for every entry that follows.
When answering, recall that pIC50 equals minus log10 of the concentration in mol/L, and write that number alone.

Identify the reported pIC50 for the following entry. C[C@H]1[C@H](OC(=O)CCC(=O)Oc2ccc(CCO)cc2)O[C@@H]2O[C@@]3(C)CC[C@H]4[C@H](C)CC[C@@H]1[C@@]24OO3 [Compound 11iv]
5.08

Identify the reported pIC50 for the following entry. C=CCc1ccc(OC(=O)CCC(=O)OC2OC3OC4(C)CCC5C(C)CCC(C2C)C35OO4)c(OC)c1 (stereo not drawn) [Compound 11ii]
5.92

Identify the reported pIC50 for the following entry. C=C(C)C1CC=C(COC(=O)CCC(=O)OC2OC3OC4(C)CCC5C(C)CCC(C2C)C35OO4)CC1 (stereo not drawn)
5.63

* * *

- System: cervical cancer cell line (HeLa)
- Assay comment: MTT cell viability assay on HeLa
- Format: cell-based, human
- Condition info: Homo sapiens, read-out: IC50 ± SD HeLa
Rule for this label: TRUE means IC50 is less than 2000 nM; FALSE means IC50 is at least 2000 nM.

hey, is IC50 for C=CCc1ccc(O)c(OC)c1 lower than 2000 nM or not?
FALSE

hey, is IC50 for CC(=O)O[C@H]1C(=O)[C@@]2(C)[C@H]([C@H](OC(=O)c3ccccc3)[C@]3(O)C[C@H](OC(=O)[C@H](O)[C@@H](NC(=O)c4ccccc4)c4ccccc4)C(C)=C1C3(C)C)[C@]1(OC(C)=O)CO[C@@H]1C[C@@H]2O lower than 2000 nM or not?
TRUE

hey, is IC50 for C=C(C)[C@@H]1CC=C(CO)CC1 lower than 2000 nM or not?
TRUE

hey, is IC50 for C[C@H]1[C@@H](O)O[C@@H]2O[C@@]3(C)CC[C@H]4[C@H](C)CC[C@@H]1[C@@]24OO3 [Compound 2, dihydroartemisinin] lower than 2000 nM or not?
TRUE

hey, is IC50 for C[C@H]1[C@H](OC(=O)CCC(=O)O)O[C@@H]2O[C@@]3(C)CC[C@H]4[C@H](C)CC[C@@H]1[C@@]24OO3 [Compound 3, artesunate] lower than 2000 nM or not?
TRUE

hey, is IC50 for COc1cc(/C=C/C(=O)CC(=O)/C=C/c2ccc(O)c(OC)c2)ccc1O lower than 2000 nM or not?
FALSE

hey, is IC50 for OCCc1ccc(O)cc1 lower than 2000 nM or not?
TRUE

hey, is IC50 for C[C@@H]1CC[C@H]2[C@@H](C)C(=O)O[C@@H]3O[C@@]4(C)CC[C@@H]1[C@]32OO4 lower than 2000 nM or not?
TRUE

hey, is IC50 for Cc1c(C)c2c(c(C)c1O)CC[C@@](C)(CCC[C@H](C)CCC[C@H](C)CCCC(C)C)O2 lower than 2000 nM or not?
FALSE

* * *

- System: SK-MEL24 cancer cell line
- Assay comment: DFO assay
- Assay type: cell-based, human
- Condition info: Homo sapiens, SK-MEL-24, 24 h, read-out: IC50 ± SD SK-MEL24 without DFO
Metric: IC50
Kindly format the answer as number then unit.

Identify the reported IC50 for the following entry. C[C@H]1[C@H](OC(=O)CCC(=O)O)O[C@@H]2O[C@@]3(C)CC[C@H]4[C@H](C)CC[C@@H]1[C@@]24OO3 [Compound 3, artesunate]
0.82 µM

Identify the reported IC50 for the following entry. C[C@@H]1CC[C@H]2[C@@H](C)C(=O)O[C@@H]3O[C@@]4(C)CC[C@@H]1[C@]32OO4 [Compound 1, Artemisinin]
8.66 µM
